Target: human GLP-1 receptor (human, UniProt P43220 24-463)
Assay: cell-based or functional assay
Starred links: 1 amine or outer side, 2 acyl side, 3 side chain; linkers in the order of their positions; H or OH if unused. Non-standard residues stand in square brackets, D forms with d. Groups on a side chain read outwards from the residue. No end group written: not given here. *: point of attachment. C20 diacid = O=C(O)CCCCCCCCCCCCCCCCCCC(=O)*; γGlu = O=C(O)[C@H](CCC(=O)[*:2])N[*:1]; αMeF = C[C@](N)(Cc1ccccc1)C(=O)O; AEEA = NCCOCCOCC(=O)O; Ac3c = NC1(C(=O)O)CC1; Aib = CC(C)(N)C(=O)O
Below is a list of entries, each paired with its recorded cAMP EC50, HEK-293 cells stably overexpressing human GLP-1 R value.
EXPERIMENTAL_ENDPOINT: cAMP EC50, HEK-293 cells stably overexpressing human GLP-1 R (nM)

{"columns": ["BINDER", "VALUE_UNIT", "READOUT_NUMBER"],
 "data": [
  ["YXQGTXTSDYSIFLDKKAQXAFIEFLLEGGPSSGQPPPS (Aib at 2; αMeF(2F) at 6; Lys 17 side chain AEEAc-AEEAc-γGlu-CO(CH2)18COOH; Aib at 20; C-terminal amide (NH2)) [Compound 21]", "nM", 0.005],
  ["YXQGTXTSDYSIXLDKKAQXAFIEYLLETGPSSGQPPXS (Aib at 2; αMeF(2F) at 6; αMeL at 13; Lys 17 side chain AEEAc-AEEAc-γGlu-CO(CH2)18COOH; Aib at 20; Ac3c at 38; C-terminal amide (NH2)) [Compound 34]", "nM", 0.023],
  ["YXQGTXTSDYSIFLDKKAQXAFIEYLLETGPSSGAPPPS (Aib at 2; αMeF(2F) at 6; Lys 17 side chain AEEAc-AEEAc-γGlu-CO(CH2)18COOH; Aib at 20; C-terminal amide (NH2)) [Compound 17]", "nM", 0.011],
  ["YXQGTXTSDYSIFLDKKAQXAFIEYLLESXPSSGAPPXS (Aib at 2; αMeF at 6; Lys 17 side chain AEEAc-AEEAc-γGlu-CO(CH2)18COOH; Aib at 20; Aib at 30; Ac3c at 38; C-terminal amide (NH2)) [Compound 29]", "nM", 0.016],
  ["YXQGTXTSDYSIXLDKKAQXAFIEYLLESHPSSGAPPPS (Aib at 2; αMeF at 6; αMeF at 13; Lys 17 side chain AEEAc-AEEAc-γGlu-CO(CH2)18COOH; Aib at 20; C-terminal amide (NH2)) [Compound 27]", "nM", 0.016],
  ["YXQGTXTSDYSIXLDKKAQXAFIEFLLEGRPSSXHPPPS (Aib at 2; αMeF at 6; αMeL at 13; Lys 17 side chain AEEAc-AEEAc-γGlu-CO(CH2)18COOH; Aib at 20; Aib at 34; C-terminal amide (NH2)) [Compound 37]", "nM", 0.028],
  ["YXQGTXTSDYSIXLDKKAQXAFIEFLLESHPSSXHPPXS (Aib at 2; αMeF at 6; αMeL at 13; Lys 17 side chain AEEAc-AEEAc-γGlu-CO(CH2)18COOH; Aib at 20; Aib at 34; Ac3c at 38; C-terminal amide (NH2)) [Compound 33]", "nM", 0.019],
  ["Y[Aib]QGT[αMeF]TSDYSIXLDKK([AEEA-AEEA-γGlu-C20 diacid])AQ[Aib]AFIEFLLES[Aib]PSSGAPP[Ac3c]S-NH2 (not fully specified (residue 13); printed as Y-Aib-QGT-αMeF-TSDYSI-αMeF-LDKK(AEEAc-AEEAc-γGlu-CO(CH2)18COOH)AQ-Aib-AFIEFLLES-Aib-PSSGAPP-Ac3c-S-NH2) [Compound 28]", "nM", 0.024],
  ["YXQGTXTSDYSIFLDKKAQXAFIEYLLETGPSSGAPPPS (Aib at 2; αMeF at 6; Lys 17 side chain AEEAc-AEEAc-γGlu-CO(CH2)18COOH; Aib at 20; C-terminal amide (NH2)) [Compound 13]", "nM", 0.012],
  ["YXQGTXTSDYSIFLDKKAQXAFIEFLLESHPSSGAPPPS (Aib at 2; αMeF at 6; Lys 17 side chain AEEAc-AEEAc-γGlu-CO(CH2)18COOH; Aib at 20; C-terminal amide (NH2)) [Compound 15]", "nM", 0.023],
  ["YXQGTXTSDYSIFLDKKAQXAFIEYLLEXHPSSGAPPPS (Aib at 2; αMeF(2F) at 6; Lys 17 side chain AEEAc-AEEAc-γGlu-CO(CH2)18COOH; Aib at 20; Aib at 29; C-terminal amide (NH2)) [Compound 18]", "nM", 0.012]
]}
